Target: hGALR-1 (Homo sapiens, UniProt P47211)
Construct: hGALR-1 that is contained in membranes from human Bowes melanoma cells; endogenous in cells; host or cells: human Bowes melanoma cells (membranes)
Assay: Human Galanin-1 Receptor Binding Assay (SPA, 125I human galanin displacement)
Conditions: membranes from human Bowes melanoma cells, Table II, formula (II) compounds, read-out: hGAL IC50
Method: This assay determines the concentration (IC50) of a test compound which prevents 50% of galanin from binding to the hGALR-1 that is contained in membranes from human Bowes melanoma cells bound to wheat germ agglutinin conjugated Scintillation Proximity Assay (SPA) beads. […] The IC50 values for each compound were calculated from the non-linear regression curve of the data using Prism® graphics software.
Quantity measured: IC50 (nM)
Value expressed in nM; do not type the unit.

Some solved cases for reference:
{"Input smiles": "O=S1(=O)C=C(c2cccc(I)c2)S(=O)(=O)CCC1", "IC50, nM": 850}
{"Input smiles": "Cc1cccc(C2=CS(=O)(=O)CCCS2(=O)=O)c1", "IC50, nM": 1300}
{"Input smiles": "Cc1ccccc1C1=CS(=O)(=O)CCCS1(=O)=O", "IC50, nM": 1600}
{"Input smiles": "O=S1(=O)C=C(c2ccccc2Br)S(=O)(=O)CCC1", "IC50, nM": 570}
{"Input smiles": "O=S1(=O)C=C(c2ccc(Oc3ccccc3)cc2)S(=O)(=O)CCC1", "IC50, nM": 410}

IC50 in this record for O=S1(=O)C=C(c2cccc3ccccc23)S(=O)(=O)CCC1 : 371

IC50 in this record for COc1ccccc1C1=CS(=O)(=O)CCCS1(=O)=O : 1000

IC50 in this record for CCc1ccc(C2=CS(=O)(=O)CCCS2(=O)=O)cc1 : 430

IC50 in this record for O=S1(=O)C=C(c2ccsc2)S(=O)(=O)CCC1 : 1300

----------
Molecular target: hGALR-1 (Homo sapiens, UniProt P47211)
Construct: hGALR-1 that is contained in membranes from human Bowes melanoma cells; endogenous in cells; host or cells: human Bowes melanoma cells (membranes)
Sequence (P47211 1-349): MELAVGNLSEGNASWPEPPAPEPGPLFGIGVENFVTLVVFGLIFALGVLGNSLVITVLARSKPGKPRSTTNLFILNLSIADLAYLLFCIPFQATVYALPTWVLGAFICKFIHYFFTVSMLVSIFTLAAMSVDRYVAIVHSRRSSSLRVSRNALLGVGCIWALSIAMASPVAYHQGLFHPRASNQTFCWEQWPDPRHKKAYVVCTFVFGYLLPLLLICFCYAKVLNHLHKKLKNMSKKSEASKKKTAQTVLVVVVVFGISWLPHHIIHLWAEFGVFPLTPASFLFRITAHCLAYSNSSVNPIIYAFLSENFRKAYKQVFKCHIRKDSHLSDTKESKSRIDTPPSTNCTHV
Experiment: Human Galanin-1 Receptor Binding Assay (SPA, 125I human galanin displacement)
Conditions: membranes from human Bowes melanoma cells, Table II, formula (II) compounds, read-out: hGAL IC50
Note to self: IC50 under 900 nM means TRUE, ties and anything higher get FALSE.

Look over these answered cases.
{"Compound": "O=C(NCCc1ccccc1)c1ccc(C2=CS(=O)(=O)CCCS2(=O)=O)cc1 [Cmpd 38]", "Answer label": "FALSE"}
{"Compound": "O=S1(=O)C=C(c2ccc(C(F)(F)F)cc2)S(=O)(=O)CCC1 [Cmpd 22]", "Answer label": "FALSE"}
{"Compound": "O=S1(=O)C=C(c2ccc(C3CCCCC3)cc2)S(=O)(=O)CCC1 [Cmpd 25]", "Answer label": "FALSE"}

Prompt: Lab log: compare recorded IC50 with 900 nM; is it strictly lower for CCCNC(=O)c1ccc(C2=CS(=O)(=O)CCCS2(=O)=O)cc1 [Cmpd 36] ?
Response: FALSE

Prompt: Lab log: compare recorded IC50 with 900 nM; is it strictly lower for O=S1(=O)C=C(c2cccc(C(F)(F)F)c2)S(=O)(=O)CCC1 [Cmpd 11] ?
Response: TRUE

Prompt: Lab log: compare recorded IC50 with 900 nM; is it strictly lower for O=S1(=O)C=C(c2ccccc2F)S(=O)(=O)CCC1 [Cmpd 29] ?
Response: TRUE

Prompt: Lab log: compare recorded IC50 with 900 nM; is it strictly lower for O=S1(=O)C=C(c2ccc(-c3ccccc3)cc2)S(=O)(=O)CCC1 [Cmpd 24] ?
Response: TRUE

Prompt: Lab log: compare recorded IC50 with 900 nM; is it strictly lower for O=S1(=O)C=C(c2ccc(I)cc2)S(=O)(=O)CCC1 [Cmpd 17] ?
Response: TRUE

Prompt: Lab log: compare recorded IC50 with 900 nM; is it strictly lower for O=S1(=O)C=C(c2cccc(OC(F)(F)F)c2)S(=O)(=O)CCC1 [Cmpd 20] ?
Response: FALSE

Prompt: Lab log: compare recorded IC50 with 900 nM; is it strictly lower for O=S1(=O)C=C(c2ccccc2Cl)S(=O)(=O)CCC1 [Cmpd 12] ?
Response: TRUE
